system: HOP-92; assay: NCI tumour cell line growth inhibition, 48 h
The source made the active and inactive calls. No stated cut-off is given here; in the data, active = GI50 up to about 1.1 µM and inactive = higher. Where a SMILES comes first, the peptide text is derived from it.
Labels: 1 (yes) (active), 0 (no) (inactive)

| compound | group |
| --- | --- |
| CC(=O)Oc1ccc(Nn2c3ccccc3c3ccccc32)c(C)c1 | 0 (no) |
| CC1=C(CC2C(=O)N(c3ccccc3)S(=O)(=O)NC2C)C(=O)N(c2ccccc2)S(=O)(=O)N1C (stereo not drawn) | 0 (no) |
| S=C(N/N=C/c1ccccn1)N1CCCCCC1 | 1 (yes) |
| COc1cc(C2c3cc4c(cc3[C@@H](Oc3ccc(F)cc3)C3COC(=O)[C@H]23)OCO4)cc(OC)c1O (stereo partly drawn) | 0 (no) |
| CCC(C)C(NC(=O)C1CCCN1C(=O)C(CC(C)C)NC(=O)C(CC(C)C)NC(=O)C(N)CC(C)C)C(=O)NC(C(=O)NCC(=O)NC(CC(N)=O)C(=O)NC(CC(C)C)C(=O)NC(CC(C)C)C(=O)NC(CC(C)C)C(N)=O)C(C)C (stereo not drawn) (H-LLLPIVGNLLL-NH2; configuration not given here) | 0 (no) |
| C=C1C(=O)OC2C1CC[C@H](C)C1(O)C(O)CC(=O)[C@@]21C (stereo partly drawn) | 0 (no) |
| [N-]=[N+]=NC1C(O)C(CO)OC1n1ccc(=O)[nH]c1=O (stereo not drawn) | 0 (no) |
| O=C(NCc1ccc(Cl)c(Cl)c1)c1nc2ccccc2nc1NCc1ccc(Cl)c(Cl)c1 | 0 (no) |
